Recorded values, source PubChem BioAssay (NCI).

Listing of recorded GI50 by entry.
- System: CAKI-1 renal
- RUN DESCRIPTION: NCI tumour cell line growth inhibition, 48 h
RECORDED METRIC: GI50

[
  {
    "COMPOUND": "[N-]=[N+]=Nc1ncc(-c2ccc(C(F)(F)F)cc2)c(NC2CCCCCC2)n1",
    "RECORDED METRIC": "GI50",
    "MEASURED VALUE": "> 10 µM"
  },
  {
    "COMPOUND": "CCOC(=O)c1sc(=S)c2c(C(=O)c3ccccc3)c(C(=O)c3ccccc3)sc2c1C(=O)OCC",
    "RECORDED METRIC": "GI50",
    "MEASURED VALUE": "3.93 µM"
  },
  {
    "COMPOUND": "COc1nccc(-c2c(-c3ccc(F)cc3)ncn2C2CCC(O)CC2)n1 (stereo not given)",
    "RECORDED METRIC": "GI50",
    "MEASURED VALUE": "25.2 µM"
  },
  {
    "COMPOUND": "Clc1nc(Cl)c2ncn(C/C=C\\Cn3cnc4c(Cl)nc(Cl)nc43)c2n1",
    "RECORDED METRIC": "GI50",
    "MEASURED VALUE": "1.16 µM"
  },
  {
    "COMPOUND": "CNC(=O)c1cc(Oc2ccc3nc(NC(=O)Nc4ccc(Cl)c(Cl)c4)sc3c2)ccn1",
    "RECORDED METRIC": "GI50",
    "MEASURED VALUE": "2.46 µM"
  }
]

---

- Tested on: T-47D breast
- RUN DESCRIPTION: NCI tumour cell line growth inhibition, 48 h
# GI50 per entry

[
  {
    "SMILES CODE": "O=c1cc/c(=N\\Nc2ccccc2)c(=O)/c1=N/Nc1ccccc1",
    "GI50": "> 50 µM"
  },
  {
    "SMILES CODE": "CCOC(=O)c1sc(=S)c2c(C(=O)c3ccccc3)c(C(=O)c3ccccc3)sc2c1C(=O)OCC",
    "GI50": "8.64 µM"
  },
  {
    "SMILES CODE": "C=C1C(=O)O[C@H]2[C@H]1CC/C(COC(=O)NCCc1ccc(OC)cc1)=C\\CC[C@@]1(C)O[C@@H]21",
    "GI50": "2.47 µM"
  },
  {
    "SMILES CODE": "Cc1sc2ncnc(Sc3nc4ccccc4[nH]3)c2c1C",
    "GI50": "18.1 µM"
  },
  {
    "SMILES CODE": "Cc1c(C(=O)/C=C/c2ccc(O)cc2)nnn1-c1ccnc2c(C(F)(F)F)cccc12",
    "GI50": "5.53 µM"
  }
]

---

- System: A549 NSCLC
- RUN DESCRIPTION: NCI tumour cell line growth inhibition, 48 h

[
  {
    "SMILES CODE": "CCOC(=O)c1sc(=S)c2c(C(=O)c3ccccc3)c(C(=O)c3ccccc3)sc2c1C(=O)OCC",
    "EXPERIMENTAL TARGET": "A549 NSCLC",
    "TGI": "> 100 µM"
  },
  {
    "SMILES CODE": "CCCCCCC(N)(CCCCCC)C(=O)Nn1c(C)ccc1C",
    "EXPERIMENTAL TARGET": "A549 NSCLC",
    "TGI": "65.3 µM"
  },
  {
    "SMILES CODE": "COc1ccc2[nH]c3c(cnn4cnnc34)c2c1",
    "EXPERIMENTAL TARGET": "A549 NSCLC",
    "TGI": "> 100 µM"
  },
  {
    "SMILES CODE": "CCOC(=O)/C(C#N)=C(O)/C(=C/c1ccccc1Cl)NC(=O)c1ccccc1",
    "EXPERIMENTAL TARGET": "A549 NSCLC",
    "TGI": "> 100 µM"
  },
  {
    "SMILES CODE": "CC(=O)Nc1ccc(-c2nnc(SCC(=O)Nc3ccccc3Cl)o2)cc1",
    "EXPERIMENTAL TARGET": "A549 NSCLC",
    "TGI": "> 100 µM"
  },
  {
    "SMILES CODE": "Nc1cc(N)c2nc(-c3ccccc3)c(Nc3ccc(F)cc3)nc2c1",
    "EXPERIMENTAL TARGET": "A549 NSCLC",
    "TGI": "44.6 µM"
  }
]
